meta.source: patent US20100047907A1

- Tested on: P-gp
- assayMethodText: Bidirectional digoxin Pgp transport across MDCK monolayers
- protocolConditions: dog, MDCK-MDR1, pH 7.4, Pgp transport, Papp B->A, Table 9 control; assayed day 10

# compound, systemUnderTest, readoutUnits, Papp B→A at 2 h, 10 µM
rows = [
    ("C[C@H]1O[C@@H](O[C@H]2[C@@H](O)C[C@H](O[C@H]3[C@@H](O)C[C@H](O[C@H]4CC[C@@]5(C)[C@H](CC[C@@H]6[C@@H]5C[C@@H](O)[C@]5(C)[C@@H](C7=CC(=O)OC7)CC[C@]65O)C4)O[C@@H]3C)O[C@@H]2C)C[C@H](O)[C@@H]1O", "P-gp", "×10⁻⁶ cm/s", 0.94),
]

* * *

- System: human P-glycoprotein (PGP)
- assayMethodText: Bidirectional digoxin Pgp transport across MDR-MDCK monolayers
- protocolConditions: dog, MDCK-MDR1, pH 7.4, Pgp transport, Papp B->A, shipped, 0.5% agarose medium apical only, Table 5 lower block c1; assayed 7 D

# molecule, Papp B→A at 120 min, 10 µM [×10⁻⁶ cm/s]
data = [
    ("C[C@H]1O[C@@H](O[C@H]2[C@@H](O)C[C@H](O[C@H]3[C@@H](O)C[C@H](O[C@H]4CC[C@@]5(C)[C@H](CC[C@@H]6[C@@H]5C[C@@H](O)[C@]5(C)[C@@H](C7=CC(=O)OC7)CC[C@]65O)C4)O[C@@H]3C)O[C@@H]2C)C[C@H](O)[C@@H]1O [Digoxin, digoxin]", 7.05),
]

* * *

- Tested on: human P-glycoprotein (PGP)
- assayMethodText: Bidirectional digoxin Pgp transport across MDR-MDCK monolayers
- protocolConditions: dog, MDCK-MDR1, pH 7.4, Pgp transport, Papp B->A, Table 5 control, not shipped; assayed 7 D

# compound, systemUnderTest, Papp B→A at 120 min, 10 µM / ×10⁻⁶ cm/s
data = [
    ("C[C@H]1O[C@@H](O[C@H]2[C@@H](O)C[C@H](O[C@H]3[C@@H](O)C[C@H](O[C@H]4CC[C@@]5(C)[C@H](CC[C@@H]6[C@@H]5C[C@@H](O)[C@]5(C)[C@@H](C7=CC(=O)OC7)CC[C@]65O)C4)O[C@@H]3C)O[C@@H]2C)C[C@H](O)[C@@H]1O", "human P-glycoprotein (PGP)", 6.7),
]

* * *

- Tested on: human P-glycoprotein (PGP)
- assayMethodText: Bidirectional digoxin Pgp transport across MDR-MDCK monolayers
- protocolConditions: dog, MDCK-MDR1, pH 7.4, Pgp transport, Papp B->A, Table 6 control; assayed 10 D

# compound, Papp B→A at 120 min, 10 µM, nm/s
rows = [
    ("C[C@H]1O[C@@H](O[C@H]2[C@@H](O)C[C@H](O[C@H]3[C@@H](O)C[C@H](O[C@H]4CC[C@@]5(C)[C@H](CC[C@@H]6[C@@H]5C[C@@H](O)[C@]5(C)[C@@H](C7=CC(=O)OC7)CC[C@]65O)C4)O[C@@H]3C)O[C@@H]2C)C[C@H](O)[C@@H]1O", 108),
]

* * *

- System: human P-glycoprotein (PGP)
- assayMethodText: Bidirectional digoxin Pgp transport across MDR-MDCK monolayers
- protocolConditions: dog, MDCK-MDR1, pH 7.4, Pgp transport, Papp A->B, Table 5 control, not shipped; assayed 7 D

# compound, Papp A→B at 120 min, 10 µM, ×10⁻⁶ cm/s
measured = [
    ("C[C@H]1O[C@@H](O[C@H]2[C@@H](O)C[C@H](O[C@H]3[C@@H](O)C[C@H](O[C@H]4CC[C@@]5(C)[C@H](CC[C@@H]6[C@@H]5C[C@@H](O)[C@]5(C)[C@@H](C7=CC(=O)OC7)CC[C@]65O)C4)O[C@@H]3C)O[C@@H]2C)C[C@H](O)[C@@H]1O [Digoxin, digoxin]", 0.1),
]

* * *

- Tested on: P-gp
- assayMethodText: Bidirectional digoxin Pgp transport across MDR-MDCK monolayers
- protocolConditions: human, MDCK-MDR1, pH 7.4, Pgp transport, Papp A->B, Table 13 MDR1-MDCK shipped overnight by air, 0.75% agarose medium basolateral only; 10 d in culture
measurementName: Papp A→B at 2 h, 10 µM (×10⁻⁶ cm/s)

# compound, endpointValue
measured = [
    ("C[C@H]1O[C@@H](O[C@H]2[C@@H](O)C[C@H](O[C@H]3[C@@H](O)C[C@H](O[C@H]4CC[C@@]5(C)[C@H](CC[C@@H]6[C@@H]5C[C@@H](O)[C@]5(C)[C@@H](C7=CC(=O)OC7)CC[C@]65O)C4)O[C@@H]3C)O[C@@H]2C)C[C@H](O)[C@@H]1O", 0.09),
]

* * *

- assayMethodText: in vitro
- protocolConditions: human, Caco-2, pH 7.4, Passive diffusion
measurementName: Papp A→B at 2 h (×10⁻⁶ cm/s)

# compound, measurementName, readoutUnits, endpointValue
records = [
    ("CC(C)NCC(O)COc1cccc2[nH]ccc12 (stereo not shown)", "Papp A→B at 2 h", "×10⁻⁶ cm/s", 14.2),
]

* * *

- Tested on: P-gp
- assayMethodText: Bidirectional digoxin Pgp transport across MDR-MDCK monolayers
- protocolConditions: human, MDCK-MDR1, pH 7.4, Pgp transport, Papp A->B, air cargo shipped (three days in transit), 0.75% agarose media basolateral only; assayed day 12
measurementName: Papp A→B at 2 h, 10 µM (×10⁻⁶ cm/s)

# compound, systemUnderTest, measurementName, readoutUnits, endpointValue
measured = [
    ("C[C@H]1O[C@@H](O[C@H]2[C@@H](O)C[C@H](O[C@H]3[C@@H](O)C[C@H](O[C@H]4CC[C@@]5(C)[C@H](CC[C@@H]6[C@@H]5C[C@@H](O)[C@]5(C)[C@@H](C7=CC(=O)OC7)CC[C@]65O)C4)O[C@@H]3C)O[C@@H]2C)C[C@H](O)[C@@H]1O", "P-gp", "Papp A→B at 2 h, 10 µM", "×10⁻⁶ cm/s", 0.07),
]

* * *

- Tested on: P-gp
- assayMethodText: Bidirectional digoxin Pgp transport across MDR-MDCK monolayers
- protocolConditions: human, MDCK-MDR1, pH 7.4, Pgp transport, Papp A->B, Table 10 control; assayed day 12
measurementName: Papp A→B at 2 h, 10 µM (×10⁻⁶ cm/s)

# compound, systemUnderTest, measurementName, endpointValue
measured = [
    ("C[C@H]1O[C@@H](O[C@H]2[C@@H](O)C[C@H](O[C@H]3[C@@H](O)C[C@H](O[C@H]4CC[C@@]5(C)[C@H](CC[C@@H]6[C@@H]5C[C@@H](O)[C@]5(C)[C@@H](C7=CC(=O)OC7)CC[C@]65O)C4)O[C@@H]3C)O[C@@H]2C)C[C@H](O)[C@@H]1O", "P-gp", "Papp A→B at 2 h, 10 µM", 0.04),
]

* * *

- Test system: human P-glycoprotein (PGP)
- assayMethodText: Bidirectional digoxin Pgp transport across MDR-MDCK monolayers
- protocolConditions: dog, MDCK-MDR1, pH 7.4, Pgp transport, Papp B->A, Table 7 control; assayed day 12

# compound, Papp B→A at 2 h, 10 µM, ×10⁻⁶ cm/s
measured = [
    ("C[C@H]1O[C@@H](O[C@H]2[C@@H](O)C[C@H](O[C@H]3[C@@H](O)C[C@H](O[C@H]4CC[C@@]5(C)[C@H](CC[C@@H]6[C@@H]5C[C@@H](O)[C@]5(C)[C@@H](C7=CC(=O)OC7)CC[C@]65O)C4)O[C@@H]3C)O[C@@H]2C)C[C@H](O)[C@@H]1O", 6.37),
]

* * *

- Test system: human P-glycoprotein (PGP)
- assayMethodText: Bidirectional digoxin Pgp transport across MDR-MDCK monolayers
- protocolConditions: dog, MDCK-MDR1, pH 7.4, Pgp transport, Papp A->B, shipped, 0.5% agarose medium apical only, Table 5 lower block c1; assayed 7 D
measurementName: Papp A→B at 120 min, 10 µM (×10⁻⁶ cm/s)

# compound, measurementName, endpointValue
data = [
    ("C[C@H]1O[C@@H](O[C@H]2[C@@H](O)C[C@H](O[C@H]3[C@@H](O)C[C@H](O[C@H]4CC[C@@]5(C)[C@H](CC[C@@H]6[C@@H]5C[C@@H](O)[C@]5(C)[C@@H](C7=CC(=O)OC7)CC[C@]65O)C4)O[C@@H]3C)O[C@@H]2C)C[C@H](O)[C@@H]1O", "Papp A→B at 120 min, 10 µM", 0.18),
]

* * *

- System: human P-glycoprotein (PGP)
- assayMethodText: Bidirectional digoxin Pgp transport across MDR-MDCK monolayers
- protocolConditions: dog, MDCK-MDR1, pH 7.4, Pgp transport, Papp A->B, shipped, 0.5% agarose medium apical only, Table 5 upper block c1; assayed 7 D
measurementName: Papp A→B at 120 min, 10 µM

# compound, systemUnderTest, measurementName, endpointValue
measured = [
    ("C[C@H]1O[C@@H](O[C@H]2[C@@H](O)C[C@H](O[C@H]3[C@@H](O)C[C@H](O[C@H]4CC[C@@]5(C)[C@H](CC[C@@H]6[C@@H]5C[C@@H](O)[C@]5(C)[C@@H](C7=CC(=O)OC7)CC[C@]65O)C4)O[C@@H]3C)O[C@@H]2C)C[C@H](O)[C@@H]1O [Digoxin, digoxin]", "human P-glycoprotein (PGP)", "Papp A→B at 120 min, 10 µM", "0.11 ×10⁻⁶ cm/s"),
]
